test: physchem; details: octanol/water
Class (required): determined from logP; valid ranges are category 1: < 2; category 2: ≥ 2 and < 3; category 3: ≥ 3

Band for the recorded logP of O=C(NN=Cc1c(Cl)cccc1Cl)Nc1ncc([N+](=O)[O-])s1 ? category 3

What about this compound? O=C(NN=Cc1cccc(Cl)c1Cl)Nc1ncc([N+](=O)[O-])s1 category 2

Now this one: O=C(NN=Cc1ccc(Cl)cc1Cl)Nc1ncc([N+](=O)[O-])s1 category 2

Next: CC(=NNC(=O)Nc1ncc([N+](=O)[O-])s1)c1ccc(Cl)cc1 category 2

Also O=C(NN=C(c1ccccc1)c1ccc(Cl)cc1)Nc1ncc([N+](=O)[O-])s1 , if possible. category 3

Next entry: CC(=NNC(=O)Nc1ncc([N+](=O)[O-])s1)c1ccc(O)cc1 category 1

Do the same for CC(=NNC(=O)Nc1ncc([N+](=O)[O-])s1)c1ccc(F)cc1 please category 1

Consider next the compound O=C(NN=C(c1ccccc1)c1ccccc1)Nc1ncc([N+](=O)[O-])s1 in the same way. category 3

Also, O=C(NN=C1C(=O)Nc2ccc(Br)cc21)Nc1ncc([N+](=O)[O-])s1 please. category 1
